Catalogue of z-score values
ASSAY TEXT: S. pombe growth modifiers, basal conditions – strain 972, OD600, 24 h, no modulator, primary screen (AID 1090);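 further: basal condition with compound alone and no growth modifier present; test concentration not given here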
EXPERIMENTAL CONDITIONS: S. pombe 972 growth, higher = more signal, called active from +8 up or from −8 down
I only need the number, thanks.

Please review the entries below; each comes with its answer.
[[record]]
compound = "COc1cc2c(cc1O)C(c1cccs1)N(Cc1cc3c(cc1Br)OCO3)CC2 (configuration not stated)"
reported_value = -4.96

[[record]]
compound = "CC(C)c1ccc(NN2C(C(O)c3ccc(C#N)cc3)C=CC3C(=O)N(c4ccccc4)C(=O)C32)cc1 (configuration not stated)"
reported_value = 0.608


Input line: Could you tell me which z-score is on file for COCCOC(=O)N1C(=O)[C@@]2(c3ccccc31)[C@H](C(=O)NC[C@H](O)c1ccccc1)[C@H]1C(=O)O[C@H](c3ccccc3)[C@H](c3ccccc3)N1[C@@H]2c1ccc(O)cc1 ?
Output line: 0.259

Input line: Could you tell me which z-score is on file for CC(C)[Si]1(C(C)C)OCc2cc(C3CC3)nc(-c3ccc(Oc4ccccc4)cc3)c21 ?
Output line: 1.12

Input line: Could you tell me which z-score is on file for COc1ccc(C(=O)Nc2ccc(CN3C(=O)[C@]4(O[C@H](CC(=O)N5Cc6ccccc6C[C@H]5CO)[C@@H]([Si](C)(C)c5ccc(OC)cc5)[C@@H]4C)c4ccccc43)cc2)cc1 ?
Output line: 1.04

Input line: Could you tell me which z-score is on file for CCC#CCN(Cc1ccccc1Br)[C@H](/C=C/C1CC1)[C@@H](O)Cc1ccccc1 ?
Output line: -1.55

Input line: Could you tell me which z-score is on file for C=C(C(=O)CC[C@H](OC(=O)c1ccccc1-c1ccccc1C(=O)O)c1cccc(OCCO)c1)C(C)C ?
Output line: -0.561

* * *

Test system: wheat germ agglutinin (Triticum aestivum), Alexa647-labelled
ASSAY TEXT: Alexa647-WGA lectin binding to printed small molecules – biochemical, small-molecule microarray, 635/667 nm fluorescence, artefact control for SMM control-protein annotation, profiling panel (AID 1140);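 further: score merges 667 nm feature emission with signal to noise over triplicate slides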
EXPERIMENTAL CONDITIONS: WGA-A647 binding, 635 nm fluorescence, higher = more signal
MEASUREMENT NAME: composite z-score

Input line: Could you tell me which composite z-score is on file for CCOC(=O)C[C@H]1[C@H](OC(=O)c2ccc(C(=O)c3ccccc3)cc2)[C@@H](NC(=O)c2ccc(-c3ccccc3)cc2)c2cc(OCCCO)ccc2N1C(=O)Cc1ccc(OC)cc1 ?
Output line: 0.223

Input line: Could you tell me which composite z-score is on file for CCCCCN1CC=CC23O[C@@H]4C=CCCOC(=O)C4[C@H]2C(=O)N(CCCCCCO)[C@@H]3C1=O (stereo partly drawn) ?
Output line: -0.411

Input line: Could you tell me which composite z-score is on file for CCOC(=O)C[C@H]1[C@H](OC(=O)c2ccc(C(=O)c3ccccc3)cc2)[C@@H](NC(=O)C2CCCCC2)c2cc(OCCCO)ccc2N1C(=O)c1ccc2ccccc2n1 ?
Output line: 0.0469

* * *

Catalogue of z-score values
ASSAY TEXT: compound effects on hepatocellular carcinoma cell viability – HepG2, calcein-AM fluorescence, 48 h, basal, profiling panel (AID 1164); further: test concentration not given here
EXPERIMENTAL CONDITIONS: higher = more signal
I only need the number, thanks.

[[record]]
item_smiles = "CC#CCO[Si](C#Cc1ccccc1)(C(C)C)C(C)C"
measurement_name = "z-score"
reported_value = -0.175


Input line: Could you tell me which z-score is on file for CC(C)[Si]1(C(C)C)OCc2cc(C3CC3)nc(-c3ccc(Oc4ccccc4)cc3)c21 ?
Output line: 0.468
